experiment: folding enthalpy; higher = less favourable; fluorescence melt of hairpins on a sequencing array, two-state fit; conditions: sodium 0.088 M
Each entry below lists one item and its recorded folding enthalpy value.
measured property: folding enthalpy

> print(dat)
                         residue.sequence  measured.property        result
 1  GGGTCGCGAAAGCGTCCC (((.(((....))).)))   folding enthalpy   -121 kJ/mol
 2        GATCAACTGTTGATC ((((((...))))))   folding enthalpy   -151 kJ/mol
 3  GCTATGGGAAACCATAGC (((((((....)))))))   folding enthalpy   -170 kJ/mol
 4  GGGATCGAAAGATTACCC ((((((....)))..)))   folding enthalpy    -73 kJ/mol
 5              GCGAGGACTCGC ((((....))))   folding enthalpy   -133 kJ/mol
 6    GGTCACGAAAGTGAACC ((((((....))).)))   folding enthalpy   -114 kJ/mol
 7  GGAGACGAAAGTCCTTCC ((((((....)))..)))   folding enthalpy  -88.1 kJ/mol
 8  GCATAGGGAAACCTATAC (.(((((....))))).)   folding enthalpy  -60.2 kJ/mol
 9          GACGAGAAATCGTC (((((....)))))   folding enthalpy   -117 kJ/mol
10  GCATGGCGAAAGCCACGC ((.((((....)))).))   folding enthalpy  -73.8 kJ/mol
11  GTTGACGAAAGTCTAAAC ((((((....)))..)))   folding enthalpy  -53.3 kJ/mol
12  GCCAATGGAAACATCGGC (((.(((....))).)))   folding enthalpy   -121 kJ/mol
13  GACTATGGAAACATAGTC (((((((....)))))))   folding enthalpy   -196 kJ/mol
14      GATCCATCTGTGGATC ((((((....))))))   folding enthalpy   -152 kJ/mol
15  GTTAGTGGAAACACTAAC (((((((....)))))))   folding enthalpy   -193 kJ/mol
16  GCCACCGAAAGGTTCGGC ((((((....)))..)))   folding enthalpy  -70.2 kJ/mol
17  GAAGCCGAAAGGCCATTC ((((((....)))..)))   folding enthalpy  -37.5 kJ/mol
18        GATCGAACCTCGATC ((((((...))))))   folding enthalpy   -144 kJ/mol
19      GATCTTTTGAAAGATC ((((((....))))))   folding enthalpy   -118 kJ/mol
20  GGCTTCTCGAAAGAGGCC (((..(((....))))))   folding enthalpy   -102 kJ/mol
21          CAGTTGAAAAACTG (((((....)))))   folding enthalpy  -87.7 kJ/mol
22        GATCTAAGCTAGATC ((((((...))))))   folding enthalpy    -90 kJ/mol
23  GTGTTGGGAAACCAGCAC (((.(((....))).)))   folding enthalpy   -184 kJ/mol
24  GAACGAGGAAACTCGCTC ((.((((....)))).))   folding enthalpy  -85.8 kJ/mol
25  GCTGTGCGAAAGCATGGC ((..(((....)))..))   folding enthalpy  -93.9 kJ/mol
